pIC50: −log10 of the molar value.
As an illustration, consider measured pIC50 for compounds on human Smo (amino acids 181-787) (Homo sapiens).

- COMPOUND: "COCCc1nnc2n1CCN(c1cc(-c3nc4ccccc4n3C)c(Cl)cn1)C2"
  pIC50: 7.31
- COMPOUND: "Cn1c(-c2ccnc(N3CCS(=O)(=O)CC3)c2)nc2ccccc21"
  pIC50: 6.31
- COMPOUND: "C[C@H]1CN(S(C)(=O)=O)CCN1c1cc(-c2nc3ccccc3n2C)c(Cl)cn1"
  pIC50: 8.10
- COMPOUND: "COCC(=O)N1CCN(c2ncc(Cl)c(-c3nc4ccccc4n3C)n2)CC1"
  pIC50: 7.85
- COMPOUND: "Cc1noc(CC2CN(c3cc(-c4nc5ccccc5n4C)c(Cl)cn3)CCO2)n1 (centres unmarked)"
  pIC50: 7.89
- COMPOUND: "CNC(=O)N1CCN(c2cc(-c3nc4ccccc4n3C)c(F)cn2)CC1"
  pIC50: 7.33
- COMPOUND: "Cn1c(-c2cc(N3CCC(N4CCNC(=O)CC4)CC3)ncc2Cl)nc2ccccc21"
  pIC50: 7.26
- COMPOUND: "Cn1c(-c2cc(N3CCC(S(N)(=O)=O)CC3)ncc2Cl)nc2ccccc21"
  pIC50: 7.85
- COMPOUND: "CN(C1CN(c2cc(-c3nc4ccccc4n3C)c(Cl)cn2)C1)S(C)(=O)=O"
  pIC50: 7.85
- COMPOUND: "Cn1c(-c2cc(NCCS(N)(=O)=O)ncc2Cl)nc2ccccc21"
  pIC50: 6.43
- COMPOUND: "CC1CC2(CCN1c1cc(-c3nc4ccccc4n3C)c(Cl)cn1)CNC(=O)C2 (stereo in doubt)"
  pIC50: 8.15
- COMPOUND: "CN1CC2(CCN(c3cc(-c4nc5ccccc5n4C)c(Cl)cn3)CC2)CC1=O"
  pIC50: 7.54
- COMPOUND: "CNC(=O)N1CCCN(c2cc(-c3nc4ccccc4n3C)ccn2)CC1"
  pIC50: 7.66
- COMPOUND: "Cn1c(-c2cc(N3CCN(C(=O)c4ncn[nH]4)CC3)ncc2Cl)nc2ccccc21"
  pIC50: 7.68
- COMPOUND: "CC(=O)N1CCN(c2cc(-c3nc4ccccc4n3C)c(Cl)cn2)C[C@@H]1C"
  pIC50: 8.15
- COMPOUND: "CN(CC(N)=O)c1cc(-c2nc3ccccc3n2C)c(Cl)cn1"
  pIC50: 7.01
- COMPOUND: "C[C@H]1CN(c2cc(-c3nc4ccccc4n3C)c(Cl)cn2)CCN1"
  pIC50: 7.80
- COMPOUND: "CC(=O)N1CCN(c2ccc(Cl)c(-c3nc4ccccc4n3C)n2)CC1"
  pIC50: 7.74
- COMPOUND: "Cn1c(-c2cc(N3CC(NS(C)(=O)=O)C3)ncc2Cl)nc2ccccc21"
  pIC50: 8.15
- COMPOUND: "Cn1c(-c2cc(N3C[C@@H](CO)C(C)(CO)C3)ncc2Cl)nc2ccccc21 (stereo in doubt)"
  pIC50: 7.15

###

As an illustration, consider measured log10 IC50 for compounds on human Smo (amino acids 181-787) (Homo sapiens, UniProt Q99835).
Sequence (Q99835 181-787): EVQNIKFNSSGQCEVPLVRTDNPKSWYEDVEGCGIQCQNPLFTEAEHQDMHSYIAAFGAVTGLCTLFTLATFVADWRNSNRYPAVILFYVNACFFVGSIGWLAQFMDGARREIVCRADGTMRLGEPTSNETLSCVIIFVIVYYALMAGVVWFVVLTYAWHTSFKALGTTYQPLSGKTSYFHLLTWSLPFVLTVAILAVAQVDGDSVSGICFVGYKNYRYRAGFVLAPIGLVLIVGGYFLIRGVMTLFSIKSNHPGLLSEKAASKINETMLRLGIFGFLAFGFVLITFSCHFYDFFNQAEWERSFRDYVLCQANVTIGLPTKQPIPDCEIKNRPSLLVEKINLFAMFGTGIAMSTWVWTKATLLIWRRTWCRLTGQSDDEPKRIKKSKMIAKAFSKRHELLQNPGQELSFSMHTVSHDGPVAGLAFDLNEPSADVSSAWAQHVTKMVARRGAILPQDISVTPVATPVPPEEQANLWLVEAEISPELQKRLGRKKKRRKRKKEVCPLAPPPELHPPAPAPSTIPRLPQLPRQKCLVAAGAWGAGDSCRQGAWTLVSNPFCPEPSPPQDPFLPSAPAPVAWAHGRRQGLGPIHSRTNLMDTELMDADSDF
QUANTITY KIND: log10 IC50 (log10 of the value in nM)

- COMPOUND: "CC1C(=O)NCCN1c1cc(-c2nc3ccccc3n2C)c(Cl)cn1 (centres unmarked)"
  QUANTITY KIND: "log10 IC50"
  MEASURED NUMBER: 1.49
- COMPOUND: "Cn1c(-c2cc(N3CCN(c4ccc(C#N)cn4)CC3)ncc2Cl)nc2ccccc21"
  QUANTITY KIND: "log10 IC50"
  MEASURED NUMBER: 1.04
- COMPOUND: "Cn1c(-c2nc(N3CCOCC3)ncc2Cl)nc2ccccc21"
  QUANTITY KIND: "log10 IC50"
  MEASURED NUMBER: 1.67
- COMPOUND: "CC(=O)NC1CCN(c2cc(-c3nc4ccccc4n3C)ccn2)CC1"
  QUANTITY KIND: "log10 IC50"
  MEASURED NUMBER: 2.01
- COMPOUND: "CC(=O)NCC1CCN(c2cc(-c3nc4ccccc4n3C)c(Cl)cn2)CC1"
  QUANTITY KIND: "log10 IC50"
  MEASURED NUMBER: 1.76
- COMPOUND: "Cn1c(-c2cc(N3CCC(C(=O)N4CCOCC4)CC3)ncc2Cl)nc2ccccc21"
  QUANTITY KIND: "log10 IC50"
  MEASURED NUMBER: 1.65
- COMPOUND: "Cc1cnc(N2CCC(NS(C)(=O)=O)CC2)cc1-c1nc2ccccc2n1C"
  QUANTITY KIND: "log10 IC50"
  MEASURED NUMBER: 1.28
- COMPOUND: "COC1CCN(c2cc(-c3nc4cccnc4n3C)c(Cl)cn2)CC1"
  QUANTITY KIND: "log10 IC50"
  MEASURED NUMBER: 2.67

Hello, the source for this data is patent US20120157471A1, in case you need it.
